Assay Explanation: RP, Waters ACQUITY UPLC BEH C18, 100 × 1 mm, 1.7 µm, 50 °C, 0.3 mL/min, estimated dead time 0.17 min; A: water + 10 mM ammonium bicarbonate; B: 10% water + 90% methanol + 10 mM ammonium bicarbonate; gradient (min/%B) 0/0 15/100 21/100 22/0 30/0
Test Settings: stereoisomer not certain
Response field label takes TRUE when LC retention time is strictly below 10 min and FALSE in all other cases.

The examples below pair each entry with its known result.
CCCc1nc(C(C)(C)O)c(C(=O)O)n1Cc1ccc(-c2ccccc2-c2nn[nH]n2)cc1 | FALSE
N#Cc1nn(-c2c(Cl)cc(C(F)(F)F)cc2Cl)c(N)c1C(F)(F)F | FALSE
CCCCCCS(=O)(=O)O | TRUE
CCNc1nc(NC(C)(C)C)nc(OC)n1 | FALSE
COC(=O)c1ccc(C(=O)OC)cc1 [Dimethyl terephthalate] | FALSE
COP(=S)(OC)Oc1ccc(S(C)=O)c(C)c1 (centres undefined) [Fenthion-sulfoxide] | FALSE

Q: Is LC retention time of Cc1c(C=O)c(=O)n(-c2ccccc2)n1C [4-Formyl-antipyrine] strictly below 10 min?
Ans: TRUE

Q: Strictly below 10 min in LC retention time? CC12CC3CC(C)(C1)CC(N)(C3)C2 [Memantine]
Ans: FALSE

###

# LC retention time listing for each entry below
Assay Explanation: RP, Waters ACQUITY UPLC BEH C18, 100 × 1 mm, 1.7 µm, 50 °C, 0.3 mL/min, estimated dead time 0.17 min; A: water + 10 mM ammonium bicarbonate; B: 10% water + 90% methanol + 10 mM ammonium bicarbonate; gradient (min/%B) 0/0 15/100 21/100 22/0 30/0
Test Settings: stereoisomer not certain
Don't forget the unit after the number, please.

CN(C)CCOC(C)(c1ccccc1)c1ccccn1 (stereo not given) [Doxylamine] | 14 min
O=c1[nH]sc2ccccc12 [1,2-Benzisothiazolinone] | 6.97 min
CN1CCc2cc3c(cc2C(=O)Cc2ccc4c(c2C1)OCO4)OCO3 [Protopin] | 13.6 min
O=C(O)c1cc(Oc2ccc(Cl)cc2Cl)ccc1[N+](=O)[O-] [Bifenox free acid] | 13.2 min

Now for the molecule whose LC retention time we want.
For CCN(CC)c1nc(C)cc(OP(=S)(OC)OC)n1 [Pirimiphos-methyl] the molecule record lists LC retention time as 16.3 min

###

Assay Explanation: RP, Waters ACQUITY UPLC BEH C18, 100 × 1 mm, 1.7 µm, 50 °C, 0.3 mL/min, estimated dead time 0.17 min; A: water + 0.1% formic acid + 20 mM ammonium formate; B: methanol + 0.1% formic acid + 20 mM ammonium formate; gradient (min/%B) 0/0 15/100 21/100 22/0 30/0
Test Settings: stereoisomer not certain
Quantity Measured: LC retention time (min)
Hi! Could you send only the number? It should be in min, unit omitted.

CC(C)(C)NCC(O)c1ccc(O)c(CO)c1 (stereo not given) [Albuterol] | 6
CCCCCCCCCC[N+](C)(C)[O-] [N,N-Dimethyldecylamine-N-oxide] | 13.8
CC(C)(C)C(=O)C(Oc1ccc(Cl)cc1)n1cncn1 (stereo not given) [Triadimefon] | 14.5
CCCCCCCCCC(=O)OC(CC(=O)[O-])C[N+](C)(C)C [Decanoyl-L-Carnitine] | 14.5

Now turn to the next compound.
Lab note: CC12CC1(C)C(=O)N(c1cc(Cl)cc(Cl)c1)C2=O (stereo not given) [Procymidone] gave LC retention time of 14.6

Hey, just so you know, these numbers are from the RepoRT retention time repository (doi:10.1021/acs.analchem.1c00972).
